Reported pIC50 against Cyclin-dependent kinase 1 (Homo sapiens, UniProt P06493), gathered from multiple publications, appears below.
pIC50: −log10 of the molar value.
Response key: 1.0 means pIC50 >= 6; 0.0 means pIC50 < 6.

Completed entries (count: 3):
1. Cc1cc(C)c(/C=C2\C(=O)Nc3ccccc32)[nH]1 :: 0.0
2. Nc1nc(NCCNc2ncc(-c3ncc[nH]3)c(-c3ccc(Cl)cc3Cl)n2)ccc1[N+](=O)[O-] :: 0.0
3. CC(C)(N)c1ccc(-c2nc(Nc3ccc(CCO)cc3)ncc2C#N)cc1 :: 0.0

Request: Does pIC50 meet or surpass 6 for CC(C)n1cnc2c(Nc3cccc(Cl)c3)nc(NCCO)nc21 ?
Result: 1.0

Request: Does pIC50 meet or surpass 6 for O=C1NCc2cccc(-c3cc4cc(OCCCN5CCCCC5)ccc4[nH]3)c21 ?
Result: 0.0

Request: Does pIC50 meet or surpass 6 for CNC(=O)Nc1ccc(-c2cc(-c3ccnc(Nc4cccc(S(N)(=O)=O)c4)n3)ccn2)cc1 ?
Result: 1.0

Request: Does pIC50 meet or surpass 6 for CCN(CC)S(=O)(=O)c1cc(Nc2nccc(-c3ccnc(-c4ccc(NC(=O)NC)cc4)c3)n2)ccc1Cl ?
Result: 0.0

Request: Does pIC50 meet or surpass 6 for COc1ccc(CNc2nc(N3CCCCCC3)nc3c2ncn3C(C)C)cc1 ?
Result: 0.0

Request: Does pIC50 meet or surpass 6 for CC(C)n1cnc2c(NCc3ccccc3)nc(N3CCCCC3CCO)nc21 (stereo not given) ?
Result: 1.0

Request: Does pIC50 meet or surpass 6 for Cn1cc(Nc2ncc3cnn([C@@H]4C[C@H]5C[C@H]5C4)c3n2)cc1C(=O)N1CCC[C@H]1C(N)=O ?
Result: 1.0

Request: Does pIC50 meet or surpass 6 for COc1ccc(CNc2nc(NCC(O)CN)nc3c2ncn3C(C)C)cc1 (stereo not given) ?
Result: 0.0

Request: Does pIC50 meet or surpass 6 for Cn1cc(Nc2ncc3cnn([C@@H]4C[C@H]5C[C@H]5C4)c3n2)cc1C(=O)N1CCC[C@H]1CO ?
Result: 1.0

Request: Does pIC50 meet or surpass 6 for CCN(CC)c1cc(Nc2ccc(S(N)(=O)=O)cc2)n2ncnc2n1 ?
Result: 0.0

Request: Does pIC50 meet or surpass 6 for CCN1CCN(Cc2ccc(Nc3cc(-c4cc(F)c5nc(C)n(C(C)C)c5c4)ccn3)nc2)CC1 ?
Result: 1.0
